Taken from ChEMBL document CHEMBL1144183.

- Organism: Rattus norvegicus
- method description: Ratio of Ki for 5HT1A receptor in rat cortex membrane to Ki for alpha1 adrenoceptor in rat cortex membrane
- Format: cell membranes
Output Fulfilled for records whose Ratio Ki is lower than 20, Not fulfilled for records at or above 20.

| record smiles | label value |
| --- | --- |
| CCOc1ccccc1N1CCN(CCNC(=O)Cn2nc(-n3ccnc3)ccc2=O)CC1 | Fulfilled |
| CC(C)Oc1ccccc1N1CCN(CCCCn2nc(-n3ccnc3)ccc2=O)CC1 | Fulfilled |
| COc1ccccc1N1CCN(C(=O)CCCn2nc(-n3ccnc3)ccc2=O)CC1 | Fulfilled |
| CCOc1ccccc1N1CCN(CCCCn2nc(-n3ccc4ccccc43)ccc2=O)CC1 | Not fulfilled |
| CCOc1ccccc1N1CCN(CCCCn2nc(-n3ccnc3)ccc2=O)CC1 | Fulfilled |
